Measured values drawn from paper PMC4414246 for this set.

Target Under Test: U1A M51S (UniProt P09012 10-89, M51S)
Sequence (P09012 10-89 M51S): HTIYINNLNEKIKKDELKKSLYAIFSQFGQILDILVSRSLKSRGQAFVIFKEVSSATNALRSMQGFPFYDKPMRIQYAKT
Test Summary: fluorescence polarization
Measure: Kd (µM)
# value in µM; strip the unit string

*Q* Please give the measured Kd for this binder: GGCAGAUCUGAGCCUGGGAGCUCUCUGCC (structured_RNA) [TAR RNA]
*A* 29.9
